# System: β-Oxidation of (1-14C) palmitic acid in cells
# Method description: β-Oxidation assay, isolation of acid soluble products
# Format: cell-based
# Design: unit not given here
# Assay conditions: 5 ug/ml
The reader will find reported Beta oxidation values listed item by item below.
Note: the reply should be a number with no unit written.

Known results for molecules:
1) CCCCCCCCC1OC(=O)C(OC)=C1C(=O)OCC (stereo not shown) [Compound 4] = 116
2) CCCCCCCCC1OC(=O)C(OCc2ccccc2)=C1C(=O)OCC (stereo not shown) [Compound 5] = 115

q: Provide one value: measured Beta oxidation of C=CCOC1=C(C(=O)OCC)C(CCCCCCCC)OC1=O (stereo not shown) [Compound 6]
a: 112

q: # return recorded Beta oxidation for entry CCCCCCCCC1OC(=O)C(OCC(=O)OCC)=C1C(=O)OCC (stereo not shown) [Compound 3]
a: 138
